FYI, the data here is from patent US20230382891A1.

Measured pIC50 values are reported for all entries that follow.
- TARGET_OR_TEST_SYSTEM: Glutaminyl-peptide cyclotransferase like (QPCTL) protein (Homo sapiens, UniProt Q9NXS2)
- Sequence (Q9NXS2 whole entry, species assumed): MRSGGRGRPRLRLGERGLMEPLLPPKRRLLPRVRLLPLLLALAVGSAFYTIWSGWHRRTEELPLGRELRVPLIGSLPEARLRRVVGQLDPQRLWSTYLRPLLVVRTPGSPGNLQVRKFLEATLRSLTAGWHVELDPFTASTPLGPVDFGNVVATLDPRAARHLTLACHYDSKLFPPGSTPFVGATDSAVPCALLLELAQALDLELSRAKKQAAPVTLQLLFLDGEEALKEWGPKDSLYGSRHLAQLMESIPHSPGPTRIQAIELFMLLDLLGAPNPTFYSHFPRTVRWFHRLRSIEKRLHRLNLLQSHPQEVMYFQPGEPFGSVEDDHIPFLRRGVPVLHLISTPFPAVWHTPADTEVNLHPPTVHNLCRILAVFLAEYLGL
pIC50: −log10 of the molar value.
QUANTITY_KIND: pIC50

COMPOUND	QUANTITY_KIND	VALUE
COCCOc1ccc(-c2cccnc2N2CC=C(c3cccn4cnnc34)CC2)cn1	pIC50	5.00 to 6.00
COc1ccc(-c2cccnc2N2CC=C(c3cccn4cnnc34)CC2)cn1	pIC50	5.00 to 6.00
OCCn1cc(C2CN(c3ccccn3)CC=C2c2cccn3cnnc23)cn1 (stereo not drawn)	pIC50	5.00 to 6.00
Cn1c(N)nnc1C1CCN(c2ncccc2-c2ccc(F)nc2)CC1	pIC50	> 6.00
Cn1c(N)nnc1C1CCN(c2nc(F)ccc2-c2ccc(F)nc2)CC1	pIC50	> 6.00
Nc1nnc(C2CCN(c3ncccc3-c3ccc(F)nc3)CC2)[nH]1	pIC50	> 6.00
